target: SHP2 (Homo sapiens (Human)); experiment: SHP2 Allosteric Inhibition Assay (DiFMUP prompt fluorescence); type: biochemical; details: 0.25 nM SHP2 activated with 0.5 μM peptide IRS1_pY1172(dPEG8)pY1222; substrate DiFMUP 100 μM; 25° C.
Sequence (Q06124 whole entry): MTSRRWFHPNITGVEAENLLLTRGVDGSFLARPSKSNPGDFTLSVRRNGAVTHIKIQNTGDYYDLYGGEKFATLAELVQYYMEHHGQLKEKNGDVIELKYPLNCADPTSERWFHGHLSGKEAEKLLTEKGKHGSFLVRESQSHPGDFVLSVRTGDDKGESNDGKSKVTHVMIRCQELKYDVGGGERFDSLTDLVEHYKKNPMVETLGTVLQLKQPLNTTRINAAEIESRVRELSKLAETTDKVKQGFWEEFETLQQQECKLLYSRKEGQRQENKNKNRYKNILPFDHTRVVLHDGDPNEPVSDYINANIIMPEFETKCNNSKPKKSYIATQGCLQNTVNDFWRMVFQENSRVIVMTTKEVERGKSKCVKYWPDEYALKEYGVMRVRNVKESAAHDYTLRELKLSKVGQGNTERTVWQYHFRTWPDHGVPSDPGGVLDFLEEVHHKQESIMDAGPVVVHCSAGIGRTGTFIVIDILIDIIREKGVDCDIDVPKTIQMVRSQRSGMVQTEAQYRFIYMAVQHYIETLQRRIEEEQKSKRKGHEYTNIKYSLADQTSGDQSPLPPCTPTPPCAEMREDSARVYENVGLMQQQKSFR
Endpoint: IC50

The examples below pair each entry with its known result.
Compound	IC50
C[C@@H]1CCN(c2n[nH]c3nc(N4CCC5(CC4)CO[C@@H](C)[C@H]5N)cnc23)c2cccc(-c3cnn(C)c3)c21	< 1 µM
Cc1nnc(-c2ccc3c(n2)CCCN3c2n[nH]c3nc(N4CCC5(CC4)CO[C@@H](C)[C@H]5N)cnc23)s1	< 1 µM

-- ask Suppose we examine the compound C[C@@H]1OCC2(CCN(c3cnc4c(N5CCCc6nc(C(F)F)ccc65)n[nH]c4n3)CC2)[C@@H]1N ; what IC50 value has been reported?
-- reply < 1 µM

-- ask # input compound: C[C@@H]1C[C@H](O)CCN1c1cnc2c(N3CCCc4ncccc43)n[nH]c2n1 (racemic) ; wanted: its IC50
-- reply ≥ 10 µM

-- ask Return reported IC50; argument: CCC(=O)N1CCN(c2n[nH]c3nc(N4CCC5(CC4)CO[C@@H](C)[C@H]5N)cnc23)c2ccccc21
-- reply < 1 µM

* * *

Consider the following compounds and their measured IC50 readings.
biological target: SHP2 (Homo sapiens (Human)); experiment: SHP2 Allosteric Inhibition Assay (DiFMUP prompt fluorescence); settings: 0.25 nM SHP2 activated with 0.5 μM peptide IRS1_pY1172(dPEG8)pY1222; substrate DiFMUP 100 μM; 25° C.

-- ask Report IC50 for c1ccc(OC2CCCN(c3cnc4c(N5CCCc6ncccc65)n[nH]c4n3)C2)cc1 (centres unmarked) please.
-- reply ≥ 10000 nM

* * *

biological target: UniProt:Q06124; assay: SHP2 Allosteric Inhibition Assay (DiFMUP prompt fluorescence); details: 0.25 nM SHP2 activated with 0.5 μM peptide IRS1_pY1172(dPEG8)pY1222; substrate DiFMUP 100 μM; 25° C.
Endpoint: IC50

Study these solved cases before continuing.
> print(dat)
                                 cpd.smiles  experimental.result
1  C[C@@H]1OCC2(CCN(c3cnc4c(N5CCCc6c(N)cccc65)n[nH]c4n3)CC2)[C@@H]1N               < 1 µM
2  C[C@@H]1OCC2(CCN(c3cnc4c(N5CCCc6nc(-c7ccn(C)n7)ccc65)n[nH]c4n3)CC2)[C@@H]1N               < 1 µM

Next molecule, IC50 to be filled in.
-- ask What does the data say about its IC50? Entry: CC1(CN)CCN(c2cnc3c(N4CCCc5c4ccc(C#N)c5C4CC4)n[nH]c3n2)CC1
-- reply < 1 µM

* * *

Below is a list of entries, each paired with its recorded IC50 value.
target: SHP2 (Homo sapiens (Human)); assay: SHP2 Allosteric Inhibition Assay (DiFMUP prompt fluorescence); settings: 0.25 nM SHP2 activated with 0.5 μM peptide IRS1_pY1172(dPEG8)pY1222; substrate DiFMUP 100 μM; 25° C.
Counter-ions that a name gives are not always drawn.

Molecule	IC50
C[C@@H]1CCN(c2n[nH]c3nc(N4CCC5(CC4)CO[C@@H](C)[C@H]5N)cnc23)c2cc(F)cnc21 (single isomer, unassigned) [Compound 262, hydrochloride]	< 1 µM

-- ask Consider the molecule C[C@@H]1OCC2(CCN(c3cnc4c(N5CCCc6c5ccnc6-c5nccs5)n[nH]c4n3)CC2)[C@@H]1N [Compound 424] and give its measured IC50.
-- reply < 1 µM

-- ask Look up IC50: CC1CCCCN1c1cnc2c(N3CCCc4ncccc43)n[nH]c2n1 (centres unmarked) [Compound 148]
-- reply ≥ 10 µM

-- ask Which value of IC50 has been reported for C[C@@H]1OCC2(CCN(c3cnc4c(N5CCCc6nc(-c7ncon7)ccc65)n[nH]c4n3)CC2)[C@@H]1N [Compound 246] in the records?
-- reply < 1 µM

-- ask Using the record for C[C@@H]1OCC2(CCN(c3cnc4c(N5CCNc6ccccc65)n[nH]c4n3)CC2)[C@@H]1N [Compound 234] , report its IC50.
-- reply < 1 µM

-- ask Can you share its IC50? I mean this molecule: C[C@@H]1OCC2(CCN(c3cnc4c(N5CCc6cccc(C#N)c6C5)n[nH]c4n3)CC2)[C@@H]1N [Compound 359]
-- reply 1 to 10 µM

-- ask Would you mind telling me what IC50 value was observed for N[C@H]1CCC12CCN(c1cnc3c(N4CCCc5ncccc54)n[nH]c3n1)CC2 [Compound 340] ?
-- reply < 1 µM

-- ask IC50 for C[C@@H]1OCC2(CCN(c3cnc4c(N5CCCc6c5cccc6[N+](=O)[O-])n[nH]c4n3)CC2)[C@@H]1N [Compound 373] ?
-- reply < 1 µM

-- ask What value of IC50 has been recorded for this entry: CC1(CN)CCN(c2cnc3c(N4CCC(c5ccccc5)c5ccccc54)n[nH]c3n2)CC1 (centres unmarked) [Compound 96]
-- reply < 1 µM
